methodSummary: ATG_GAL4_TRANS: Attagene TRANS-FACTORIAL HepG2 Assay for GAL4 (Internal Marker) (AID 2282976)
experimentalParameters: HepG2 Attagene TRANS GAL4 internal marker reporter
Results filed as inconclusive are left out. Activity calls are given as the source filed them. The calls were made as follows: active = hit-call score of the fitted dose curve at least 0.9, where 1 is the maximum; inconclusive = response in the unintended direction; inactive = score below 0.9.

{"molecule": "CC1OC(C)OC(C)O1 (stereo unspecified)", "outcome": "inactive"}
{"molecule": "CCOC(=O)COc1ccc(Cl)cc1Cl", "outcome": "inactive"}
{"molecule": "COC(=O)COc1ccc(Cl)cc1Cl", "outcome": "inactive"}
{"molecule": "C=CC(=O)OCC(CC)CCCC (stereo unspecified)", "outcome": "inactive"}
{"molecule": "C=COCCCl", "outcome": "inactive"}
{"molecule": "CC(C)CCCCCCCOP(=O)(Oc1ccccc1)Oc1ccccc1", "outcome": "inactive"}
{"molecule": "S=c1[nH]c2ccccc2[nH]1", "outcome": "inactive"}
{"molecule": "CC(C)(Cl)Cl", "outcome": "inactive"}
{"molecule": "Cc1cc(C)c(C2=C(OC(=O)CC(C)(C)C)C3(CCCC3)OC2=O)c(C)c1", "outcome": "inactive"}
{"molecule": "Oc1cc(Cl)ccc1Cl", "outcome": "inactive"}
{"molecule": "N#Cc1cccc(C#N)c1", "outcome": "inactive"}
{"molecule": "CN(C)C(=O)C(c1ccccc1)c1ccccc1", "outcome": "inactive"}
{"molecule": "CC1(C)CC(=O)CC(C)(C)N1[O]", "outcome": "inactive"}
{"molecule": "N#CCNCC#N", "outcome": "inactive"}
{"molecule": "O=C(O)CCCc1ccc(N(CCCl)CCCl)cc1", "outcome": "inactive"}
{"molecule": "CCC(=O)c1ccc(Cl)cc1", "outcome": "inactive"}
{"molecule": "CN(C)N", "outcome": "inactive"}
{"molecule": "CN(C)CCC#N", "outcome": "inactive"}
{"molecule": "COc1ncc(F)c2nc(S(=O)(=O)Nc3c(F)cccc3F)nn12", "outcome": "inactive"}
{"molecule": "O=C(CCN1CC1)OCC(CO)(COC(=O)CCN1CC1)COC(=O)CCN1CC1", "outcome": "inactive"}
{"molecule": "Oc1ccc(C2(c3ccc(O)cc3)c3ccccc3-c3ccccc32)cc1", "outcome": "inactive"}
{"molecule": "Nc1ccc([N+](=O)[O-])cc1N", "outcome": "inactive"}
{"molecule": "O=[N+]([O-])O", "outcome": "inactive"}
{"molecule": "O=P(O)(Oc1ccccc1)Oc1ccccc1", "outcome": "inactive"}
{"molecule": "C=CC(=O)OC", "outcome": "inactive"}
{"molecule": "O=C=Nc1ccccc1", "outcome": "inactive"}
{"molecule": "C[C@]12CCC(=O)C(O)=C1CC[C@@H]1[C@@H]2CC[C@]2(C)C(=O)CC[C@@H]12", "outcome": "inactive"}
{"molecule": "CCCCCCC1CCOC1=O (stereo unspecified)", "outcome": "inactive"}
{"molecule": "Cl/C=C\\CCl", "outcome": "inactive"}
{"molecule": "BrCBr", "outcome": "inactive"}
{"molecule": "CC1(C)[C@H](C(=O)O[C@H](C#N)c2cccc(Oc3ccccc3)c2)[C@@H]1C=C(Br)Br", "outcome": "inactive"}

----------
testedOn: human Peroxisome Proliferator-activated Receptor delta (PPARd), PPARD (gene 5467) (UniProt Q03181)
Sequence (Q03181 whole entry, looked up): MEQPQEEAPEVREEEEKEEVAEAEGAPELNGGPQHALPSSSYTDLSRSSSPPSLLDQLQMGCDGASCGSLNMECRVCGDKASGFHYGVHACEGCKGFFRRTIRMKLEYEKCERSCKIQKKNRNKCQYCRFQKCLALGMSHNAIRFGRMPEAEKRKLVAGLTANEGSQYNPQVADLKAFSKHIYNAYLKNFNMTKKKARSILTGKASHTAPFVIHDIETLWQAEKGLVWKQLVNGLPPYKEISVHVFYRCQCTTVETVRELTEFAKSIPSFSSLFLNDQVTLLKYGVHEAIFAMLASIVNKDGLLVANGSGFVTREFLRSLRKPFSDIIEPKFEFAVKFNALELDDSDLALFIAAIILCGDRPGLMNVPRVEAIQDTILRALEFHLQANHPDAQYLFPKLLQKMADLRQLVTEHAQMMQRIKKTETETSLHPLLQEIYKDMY
methodSummary: ATG_PPARd_TRANS: Attagene TRANS-FACTORIAL HepG2 Assay for human Peroxisome Proliferator-activated Receptor delta (PPARd) (AID 2283002)
Results filed as inconclusive are left out. The source made the active and inactive calls. Rule for the calls: active = hit-call score of the fitted dose curve at least 0.9, where 1 is the maximum; inconclusive = response in the unintended direction; inactive = score below 0.9.
Outcomes: active, inactive

{"compound": "CCOC(=O)COc1ccc(Cl)cc1Cl", "classification": "inactive"}
{"compound": "Nc1ccc([N+](=O)[O-])cc1N", "classification": "inactive"}
{"compound": "CCCCCCCCCCCC#N", "classification": "inactive"}
{"compound": "C=C(Cl)Cl", "classification": "inactive"}
{"compound": "CCC1CCC(=O)O1 (stereo not given)", "classification": "inactive"}
{"compound": "CC(C)CCCCCCCOP(=O)(Oc1ccccc1)Oc1ccccc1", "classification": "inactive"}
{"compound": "CN1C(=O)CCS(=O)(=O)C1c1ccc(Cl)cc1 (stereo not given)", "classification": "inactive"}
{"compound": "[CH3][Sn]([CH3])([Cl])[Cl]", "classification": "inactive"}
{"compound": "C[C@]12CC[C@H]3[C@@H](CC[C@@]45O[C@@H]4C(O)=C(C#N)C[C@]35C)[C@@H]1CC[C@@H]2O", "classification": "inactive"}
{"compound": "C[N+](C)(C)CC(=O)O", "classification": "inactive"}
{"compound": "CCOC(=O)NC(=S)Nc1ccccc1NC(=S)NC(=O)OCC", "classification": "inactive"}
{"compound": "CC(C)(C)C(=O)CCl", "classification": "inactive"}
{"compound": "[Cl][Sb]([Cl])[Cl]", "classification": "inactive"}
{"compound": "CC[N+](=O)[O-]", "classification": "inactive"}
{"compound": "O=C(O)c1cc[c]([Hg][Cl])cc1", "classification": "active"}

----------
testedOn: human Retinoid X Receptor beta (RXRb), RXRB (gene 6257) (UniProt P28702)
Sequence (P28702 whole entry, looked up): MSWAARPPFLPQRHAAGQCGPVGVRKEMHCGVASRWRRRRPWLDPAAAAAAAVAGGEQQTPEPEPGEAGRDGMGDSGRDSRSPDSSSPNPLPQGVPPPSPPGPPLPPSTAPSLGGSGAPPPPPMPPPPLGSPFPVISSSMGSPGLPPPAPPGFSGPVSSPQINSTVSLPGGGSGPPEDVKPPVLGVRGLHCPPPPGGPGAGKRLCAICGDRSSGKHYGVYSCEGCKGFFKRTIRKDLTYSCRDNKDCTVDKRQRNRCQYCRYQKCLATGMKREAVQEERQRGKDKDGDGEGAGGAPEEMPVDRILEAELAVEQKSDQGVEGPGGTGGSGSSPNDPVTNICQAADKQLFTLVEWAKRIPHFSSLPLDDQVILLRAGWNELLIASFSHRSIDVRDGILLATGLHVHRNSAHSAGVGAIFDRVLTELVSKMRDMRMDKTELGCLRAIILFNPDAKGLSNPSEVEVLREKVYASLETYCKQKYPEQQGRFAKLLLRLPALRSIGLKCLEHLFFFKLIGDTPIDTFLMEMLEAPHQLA
methodSummary: ATG_RXRb_TRANS: Attagene TRANS-FACTORIAL HepG2 Assay for human Retinoid X Receptor beta (RXRb) (AID 2283013)
Inconclusive results are not listed. Active and inactive are the calls of the source. Rule for the calls: active = hit-call score of the fitted dose curve at least 0.9, where 1 is the maximum; inconclusive = response in the unintended direction; inactive = score below 0.9.
Outcomes: active, inactive

{"molecule": "CC1(C)[C@H](C(=O)O[C@H](C#N)c2cccc(Oc3ccccc3)c2)[C@@H]1C=C(Br)Br", "classification": "inactive"}
{"molecule": "O=[N+]([O-])C=Cc1ccccc1", "classification": "inactive"}
{"molecule": "CCC(C)c1cc(C(C)(C)C)cc(-n2nc3ccccc3n2)c1O (stereo unspecified)", "classification": "active"}
{"molecule": "CC(C)[C@@H](C(=O)O[C@@H](C#N)c1cccc(Oc2ccccc2)c1)c1ccc(Cl)cc1", "classification": "inactive"}
{"molecule": "Nc1c(Cl)c(Cl)c(Cl)c(Cl)c1Cl", "classification": "active"}
{"molecule": "C=CC(=O)OCCCCOC(=O)C=C", "classification": "inactive"}

----------
methodSummary: CCTE_Harrill_HTTr_Apoptosis_PRF_DMEM_12hr: (Pilot) CCTE's 12-hour Apoptosis Assessment for the High-Throughput Transcriptomics (HTTr) Platform, in MCF-7 cells cultured in phenol red-free DMEM + 10% charcoal-stripped fetal bovine serum, Harrill Lab (AID 2283985)
Activity calls are given as the source filed them. Rule for the calls: active = hit-call score of the fitted dose curve at least 0.9, where 1 is the maximum; inactive = score below 0.9.
Outcomes: active, inactive

{"chemicalSmiles": "CC(C)CCCCCCc1ccc(O)cc1", "classification": "active"}
{"chemicalSmiles": "N[C@@H](Cc1cc(I)c(Oc2ccc(O)c(I)c2)c(I)c1)C(=O)O", "classification": "inactive"}
{"chemicalSmiles": "CC(C)(c1ccc(O)cc1)c1ccc(O)cc1", "classification": "inactive"}
{"chemicalSmiles": "Cc1nn(C)c(Oc2ccccc2)c1C=NOCc1ccc(C(=O)OC(C)(C)C)cc1", "classification": "inactive"}
{"chemicalSmiles": "CCN(CC)CCOc1ccc(C(=C(Cl)c2ccccc2)c2ccccc2)cc1", "classification": "active"}
{"chemicalSmiles": "CC(C)C(=O)Nc1ccc([N+](=O)[O-])c(C(F)(F)F)c1", "classification": "inactive"}
{"chemicalSmiles": "CC(=O)O[C@]1(C(C)=O)CC[C@H]2[C@@H]3C=C(Cl)C4=CC(=O)[C@@H]5C[C@@H]5[C@]4(C)[C@H]3CC[C@@]21C", "classification": "inactive"}
{"chemicalSmiles": "CCC(=C(c1ccc(O)cc1)c1ccc(OCCN(C)C)cc1)c1ccccc1", "classification": "active"}
{"chemicalSmiles": "O=C(O)Cc1cc(I)c(Oc2cc(I)c(O)c(I)c2)c(I)c1", "classification": "inactive"}
{"chemicalSmiles": "CCOC(=O)C(C)(C)Oc1ccc(Cl)cc1", "classification": "inactive"}
{"chemicalSmiles": "CC(C)OC(=O)C(C)(C)Oc1ccc(C(=O)c2ccc(Cl)cc2)cc1", "classification": "inactive"}

----------
testedOn: human Fibroblast Growth Factor Receptor 1 (FGFR1), FGFR1 (gene 2260) (UniProt P11362)
Sequence (P11362 whole entry, looked up): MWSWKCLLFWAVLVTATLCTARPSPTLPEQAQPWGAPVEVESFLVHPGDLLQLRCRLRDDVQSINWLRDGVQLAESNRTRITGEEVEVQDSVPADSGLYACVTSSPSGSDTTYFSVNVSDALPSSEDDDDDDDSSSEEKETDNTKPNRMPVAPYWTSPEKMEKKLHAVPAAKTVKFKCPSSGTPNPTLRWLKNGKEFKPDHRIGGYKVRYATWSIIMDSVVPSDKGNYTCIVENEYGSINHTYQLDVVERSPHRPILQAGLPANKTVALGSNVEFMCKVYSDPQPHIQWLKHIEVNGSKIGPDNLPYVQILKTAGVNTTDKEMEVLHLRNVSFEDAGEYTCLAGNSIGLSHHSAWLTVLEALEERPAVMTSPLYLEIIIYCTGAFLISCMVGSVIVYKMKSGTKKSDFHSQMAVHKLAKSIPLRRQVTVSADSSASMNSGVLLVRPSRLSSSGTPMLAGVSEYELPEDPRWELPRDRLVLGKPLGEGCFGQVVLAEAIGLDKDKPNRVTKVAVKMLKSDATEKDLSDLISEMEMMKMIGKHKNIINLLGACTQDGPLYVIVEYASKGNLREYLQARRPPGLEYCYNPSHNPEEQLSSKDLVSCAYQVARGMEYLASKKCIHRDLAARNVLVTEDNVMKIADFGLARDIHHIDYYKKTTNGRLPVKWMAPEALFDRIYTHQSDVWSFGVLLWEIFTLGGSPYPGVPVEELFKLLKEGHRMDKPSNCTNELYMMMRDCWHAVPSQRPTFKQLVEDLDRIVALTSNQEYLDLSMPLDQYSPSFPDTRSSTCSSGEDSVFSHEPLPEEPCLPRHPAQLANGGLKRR
methodSummary: NVS_ENZ_hFGFR1: NovaScreen (NVS) Enzymatic Assay for human Fibroblast Growth Factor Receptor 1 (FGFR1) (AID 2283159)
Records with an inconclusive call do not appear. Activity calls are given as the source filed them. The calls were made as follows: active = hit-call score of the fitted dose curve at least 0.9, where 1 is the maximum; inconclusive = response in the unintended direction; inactive = score below 0.9.
Outcomes: active, inactive

{"molecule": "Cc1c(-c2cccnc2)c2ccccc2n1CCCCC(=O)O", "classification": "inactive"}
{"molecule": "FC(F)(F)C(F)(F)C(F)(F)C(F)(F)C(F)(F)C(F)(F)CCI", "classification": "inactive"}
{"molecule": "NC(=O)N(O)[C@@H]1C=C[C@H](Oc2cccc(Oc3ccc(F)cc3)c2)C1", "classification": "inactive"}
{"molecule": "Cc1cn([C@H]2C[C@H](N=[N+]=[N-])[C@@H](CO)O2)c(=O)[nH]c1=O", "classification": "inactive"}
{"molecule": "O=C(Oc1ccccc1)c1cccc(C(=O)Oc2ccccc2)c1", "classification": "inactive"}
{"molecule": "CC(C)(C)CC(C)(C)c1ccc(O)c(-n2nc3ccccc3n2)c1", "classification": "inactive"}
{"molecule": "CCCCCCCC=O", "classification": "inactive"}
{"molecule": "CC[C@H](C)C(=O)O[C@H]1C[C@@H](C)C=C2C=C[C@H](C)[C@H](CC[C@@H]3C[C@@H](O)CC(=O)O3)[C@H]21", "classification": "inactive"}
{"molecule": "CC(C)(c1ccc(O)cc1)c1ccc(O)cc1", "classification": "inactive"}
{"molecule": "CC(C)NCC(O)c1ccc(O)c(O)c1 (stereo not drawn)", "classification": "inactive"}
{"molecule": "c1cc(-c2ccncc2)ccn1", "classification": "inactive"}
{"molecule": "CCCCCCCCCCCCCCCCOS(=O)(=O)O", "classification": "active"}
{"molecule": "CCCCCCCC(=O)O", "classification": "inactive"}

Data provenance: PubChem BioAssay (EPA / NIEHS)
